Listed next: entries and their corresponding MIC.
Tested on: Acinetobacter baumannii
experimental-protocol: Antibacterial activity against multidrug-resistant Acinetobacter baumannii BM4675 by antimicrobial susceptibility assay
Type: functional
State the answer as a number, implicitly in µg/mL.

- NCC[C@H](O)C(=O)N[C@@H]1C[C@H](N)[C@@H](O[C@H]2O[C@H](CN)[C@@H](O)[C@H](O)[C@H]2O)[C@H](O)[C@H]1O[C@H]1O[C@H](CO)[C@@H](O)[C@H](N)[C@H]1O: 96
- CN(C)[C@@H]1C(O)=C(C(N)=O)C(=O)[C@@]2(O)C(O)=C3C(=O)c4c(O)cccc4[C@@](C)(O)[C@H]3C[C@@H]12: 32

Tell us which MIC value is on record for CCN[C@@H]1C[C@H](N)[C@@H](O[C@H]2OC(CN)=CC[C@H]2N)[C@H](O)[C@H]1O[C@H]1OC[C@](C)(O)[C@H](NC)[C@H]1O 32
